Tested on: 435261-313-R-J1-PDC tumor spheroid viability
protocol text: Anticancer human tumor 435261-313-R-J1-PDC patient-derived colon adenocarcinoma cell line growth inhibition [PI3K]
measurement context: second compound 0.1 µM; first compound 1 µM; stronger effect = lower value; spheroids with HUVEC and MSC
Reported viability, T/C values follow for various compounds
# number only, unit % dropped from output

Some solved entries appear below for comparison.
compound	output unit	viability, T/C
C#Cc1c(F)ccc2cc(O)cc(-c3ncc4c(N5CC6CCC(C5)N6)nc(OCC56CCCN5CC(F)C6)nc4c3F)c12 (stereo not given) + CC(Nc1ccc2c(c1)OCCn1cc(N3C(=O)OCC3C(F)F)nc1-2)C(N)=O	%	33.2
CC1(C)CCC(Nc2ncc(C(F)(F)F)c(-c3c[nH]c4c(P(C)(C)=O)c(C#N)ccc34)n2)CN1 (stereo not given) + CC(Nc1ncnc2nc[nH]c12)c1cc2cccc(Cl)c2c(=O)n1-c1ccccc1	%	60.6
CC(C)NCC(C(=O)N1CCN(c2ncnc3c2C(C)CC3O)CC1)c1ccc(Cl)cc1 (stereo not given) + CC(Nc1ncnc2nc[nH]c12)c1cc2cccc(Cl)c2c(=O)n1-c1ccccc1	%	102
CC1(C)CCC(Nc2ncc(C(F)(F)F)c(-c3c[nH]c4c(P(C)(C)=O)c(C#N)ccc34)n2)CN1 (stereo not given) + Cc1nc(NC(=O)N2CCCC2C(N)=O)sc1-c1ccnc(C(C)(C)C(F)(F)F)c1	%	38.3

Qu. Report viability, T/C for Cn1nccc1Nc1nccc(-c2ccn(C(CO)c3ccc(Cl)c(F)c3)c(=O)c2)n1 (stereo not given) + COc1c(OCCCN2CCOCC2)ccc2c3n(c(=NC(=O)c4cnc(N)nc4)nc12)CCN3 please.
Ans. 8.53

----------
Tested on: 435261-313-R-J1-PDC tumor spheroid viability
protocol text: Anticancer human tumor 435261-313-R-J1-PDC cell line growth inhibition [PI3K];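 also: spheroids exposed to compounds for 7 days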
measurement context: curve of first compound; second compound 1 µM; spheroids with HUVEC and MSC
Reported IC50 values follow for various compounds

Some solved entries appear below for comparison.
compound	IC50
C#Cc1c(F)ccc2cc(O)cc(-c3ncc4c(N5CC6CCC(C5)N6)nc(OCC56CCCN5CC(F)C6)nc4c3F)c12 (stereo unspecified) + CC(Nc1ccc2c(c1)OCCn1cc(N3C(=O)OCC3C(F)F)nc1-2)C(N)=O	< 0.0316 µM
Cn1nccc1Nc1nccc(-c2ccn(C(CO)c3ccc(Cl)c(F)c3)c(=O)c2)n1 (stereo unspecified) + CC(Nc1ncnc2nc[nH]c12)c1cc2cccc(Cl)c2c(=O)n1-c1ccccc1	0.424 µM
Cn1ncc(Cl)c1-c1cc(C(=O)NC(CN)Cc2cccc(F)c2)sc1Cl (stereo unspecified) + Cc1nc(NC(=O)N2CCCC2C(N)=O)sc1-c1ccnc(C(C)(C)C(F)(F)F)c1	< 0.0316 µM
CC1(C)CCC(CN2CCN(c3ccc(C(=O)NS(=O)(=O)c4ccc(NCC5CCOCC5)c([N+](=O)[O-])c4)c(Oc4cnc5[nH]ccc5c4)c3)CC2)=C(c2ccc(Cl)cc2)C1 + COc1c(OCCCN2CCOCC2)ccc2c3n(c(=NC(=O)c4cnc(N)nc4)nc12)CCN3	< 0.0316 µM

Qu. Report IC50 for Cn1ncc(Cl)c1-c1cc(C(=O)NC(CN)Cc2cccc(F)c2)sc1Cl (stereo unspecified) + CC(Nc1ncnc2nc[nH]c12)c1cc2cccc(Cl)c2c(=O)n1-c1ccccc1 please.
Ans. 0.863 µM

Qu. Try CNC(=O)c1ccc(N2C(=S)N(c3ccc(C#N)c(C(F)(F)F)c3)C(=O)C2(C)C)cc1F + CC(Nc1ccc2c(c1)OCCn1cc(N3C(=O)OCC3C(F)F)nc1-2)C(N)=O next.
Ans. < 0.0316 µM

----------
Test system: 435261-313-R-J1-PDC tumor spheroid viability
protocol text: Anticancer human tumor 435261-313-R-J1-PDC cell line growth inhibition [PI3K];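 also: spheroids exposed to compounds for 7 days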
measurement context: second compound 0.316 µM; first compound 0.316 µM; stronger effect = lower value; spheroids with HUVEC and MSC
viability, T/C less than 30% is 1; viability, T/C greater than or equal to 30% is 0.

molecule	group label
CC1(C)CCC(CN2CCN(c3ccc(C(=O)NS(=O)(=O)c4ccc(NCC5CCOCC5)c([N+](=O)[O-])c4)c(Oc4cnc5[nH]ccc5c4)c3)CC2)=C(c2ccc(Cl)cc2)C1 + CC(Nc1ccc2c(c1)OCCn1cc(N3C(=O)OCC3C(F)F)nc1-2)C(N)=O	1
CCCS(=O)(=O)Nc1ccc(F)c(C(=O)c2c[nH]c3ncc(-c4ccc(Cl)cc4)cc23)c1F + COc1c(OCCCN2CCOCC2)ccc2c3n(c(=NC(=O)c4cnc(N)nc4)nc12)CCN3	1
CCN1CCN(Cc2ccc(Nc3ncc(F)c(-c4cc(F)c5nc(C)n(C(C)C)c5c4)n3)nc2)CC1 + CC(Nc1ccc2c(c1)OCCn1cc(N3C(=O)OCC3C(F)F)nc1-2)C(N)=O	1
Cn1ncc(Cl)c1-c1cc(C(=O)NC(CN)Cc2cccc(F)c2)sc1Cl (stereo not given) + CC(Nc1ncnc2nc[nH]c12)c1cc2cccc(Cl)c2c(=O)n1-c1ccccc1	0
CC1(C)CCC(Nc2ncc(C(F)(F)F)c(-c3c[nH]c4c(P(C)(C)=O)c(C#N)ccc34)n2)CN1 (stereo not given) + Cc1nc(NC(=O)N2CCCC2C(N)=O)sc1-c1ccnc(C(C)(C)C(F)(F)F)c1	1
C#Cc1c(F)ccc2cc(O)cc(-c3ncc4c(N5CC6CCC(C5)N6)nc(OCC56CCCN5CC(F)C6)nc4c3F)c12 (stereo not given) + CC(Nc1ccc2c(c1)OCCn1cc(N3C(=O)OCC3C(F)F)nc1-2)C(N)=O	1
CC(Cn1ccc(-c2ccc(C#N)c(Cl)c2)n1)NC(=O)c1cc(C(C)O)[nH]n1 (stereo not given) + Cc1nc(NC(=O)N2CCCC2C(N)=O)sc1-c1ccnc(C(C)(C)C(F)(F)F)c1	0
CC1(C)CCC(Nc2ncc(C(F)(F)F)c(-c3c[nH]c4c(P(C)(C)=O)c(C#N)ccc34)n2)CN1 (stereo not given) + CC(Nc1ccc2c(c1)OCCn1cc(N3C(=O)OCC3C(F)F)nc1-2)C(N)=O	1
CC1(C)CCC(Nc2ncc(C(F)(F)F)c(-c3c[nH]c4c(P(C)(C)=O)c(C#N)ccc34)n2)CN1 (stereo not given) + CC(Nc1ncnc2nc[nH]c12)c1cc2cccc(Cl)c2c(=O)n1-c1ccccc1	0

Could you now look at the following molecule, please?
Qu. Is viability, T/C of C=CC(=O)N1CCN(c2nc(=O)n(-c3c(C)ccnc3C(C)C)c3nc(-c4c(O)cccc4F)c(F)cc23)C(C)C1 (stereo not given) + COc1c(OCCCN2CCOCC2)ccc2c3n(c(=NC(=O)c4cnc(N)nc4)nc12)CCN3 strictly below 30%?
Ans. 1

----------
Reported viability, T/C values follow for various compounds
Test system: 435261-313-R-J1-PDC tumor spheroid viability
protocol text: Anticancer human tumor 435261-313-R-J1-PDC cell line growth inhibition [PI3K];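 also: spheroids exposed to compounds for 7 days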
measurement context: second compound 0.316 µM; first compound 0.316 µM; stronger effect = lower value; spheroids with HUVEC and MSC
# number only, unit % dropped from output

Qu. Report viability, T/C for CNC(=O)c1ccc(N2C(=S)N(c3ccc(C#N)c(C(F)(F)F)c3)C(=O)C2(C)C)cc1F + CC(Nc1ncnc2nc[nH]c12)c1cc2cccc(Cl)c2c(=O)n1-c1ccccc1 please.
Ans. 103

Qu. Try CCCS(=O)(=O)Nc1ccc(F)c(C(=O)c2c[nH]c3ncc(-c4ccc(Cl)cc4)cc23)c1F + Cc1nc(NC(=O)N2CCCC2C(N)=O)sc1-c1ccnc(C(C)(C)C(F)(F)F)c1 next.
Ans. 70.4

Qu. Try CNC(=O)c1ccc(N2C(=S)N(c3ccc(C#N)c(C(F)(F)F)c3)C(=O)C2(C)C)cc1F + COc1c(OCCCN2CCOCC2)ccc2c3n(c(=NC(=O)c4cnc(N)nc4)nc12)CCN3 next.
Ans. 7.55

Qu. Try CCN1CCN(Cc2ccc(Nc3ncc(F)c(-c4cc(F)c5nc(C)n(C(C)C)c5c4)n3)nc2)CC1 + COc1c(OCCCN2CCOCC2)ccc2c3n(c(=NC(=O)c4cnc(N)nc4)nc12)CCN3 next.
Ans. 8.43

Qu. Try Cn1nccc1Nc1nccc(-c2ccn(C(CO)c3ccc(Cl)c(F)c3)c(=O)c2)n1 (stereo unspecified) + CC(Nc1ccc2c(c1)OCCn1cc(N3C(=O)OCC3C(F)F)nc1-2)C(N)=O next.
Ans. 9.92

Qu. Try CC(C)NCC(C(=O)N1CCN(c2ncnc3c2C(C)CC3O)CC1)c1ccc(Cl)cc1 (stereo unspecified) + CC(Nc1ccc2c(c1)OCCn1cc(N3C(=O)OCC3C(F)F)nc1-2)C(N)=O next.
Ans. 18.4

Qu. Try Cn1nccc1Nc1nccc(-c2ccn(C(CO)c3ccc(Cl)c(F)c3)c(=O)c2)n1 (stereo unspecified) + Cc1nc(NC(=O)N2CCCC2C(N)=O)sc1-c1ccnc(C(C)(C)C(F)(F)F)c1 next.
Ans. 21.3

Qu. Try C#Cc1c(F)ccc2cc(O)cc(-c3ncc4c(N5CC6CCC(C5)N6)nc(OCC56CCCN5CC(F)C6)nc4c3F)c12 (stereo unspecified) + Cc1nc(NC(=O)N2CCCC2C(N)=O)sc1-c1ccnc(C(C)(C)C(F)(F)F)c1 next.
Ans. 46.2

Qu. Try C[C@@H](NC(=O)c1ncnc(N)c1Cl)c1ncc(C(=O)Nc2cc(C(F)(F)F)c(Cl)cn2)s1 + COc1c(OCCCN2CCOCC2)ccc2c3n(c(=NC(=O)c4cnc(N)nc4)nc12)CCN3 next.
Ans. 12.2

Qu. Try C#Cc1c(F)ccc2cc(O)cc(-c3ncc4c(N5CC6CCC(C5)N6)nc(OCC56CCCN5CC(F)C6)nc4c3F)c12 (stereo unspecified) + CC(Nc1ncnc2nc[nH]c12)c1cc2cccc(Cl)c2c(=O)n1-c1ccccc1 next.
Ans. 79.8

Qu. Try CC1(C)CCC(Nc2ncc(C(F)(F)F)c(-c3c[nH]c4c(P(C)(C)=O)c(C#N)ccc34)n2)CN1 (stereo unspecified) + COc1c(OCCCN2CCOCC2)ccc2c3n(c(=NC(=O)c4cnc(N)nc4)nc12)CCN3 next.
Ans. 5.71

Qu. Try Cn1nccc1Nc1nccc(-c2ccn(C(CO)c3ccc(Cl)c(F)c3)c(=O)c2)n1 (stereo unspecified) + CC(Nc1ncnc2nc[nH]c12)c1cc2cccc(Cl)c2c(=O)n1-c1ccccc1 next.
Ans. 53.6

Qu. Try CC1(C)CCC(CN2CCN(c3ccc(C(=O)NS(=O)(=O)c4ccc(NCC5CCOCC5)c([N+](=O)[O-])c4)c(Oc4cnc5[nH]ccc5c4)c3)CC2)=C(c2ccc(Cl)cc2)C1 + COc1c(OCCCN2CCOCC2)ccc2c3n(c(=NC(=O)c4cnc(N)nc4)nc12)CCN3 next.
Ans. 8.35

Qu. Try CC(C)NCC(C(=O)N1CCN(c2ncnc3c2C(C)CC3O)CC1)c1ccc(Cl)cc1 (stereo unspecified) + COc1c(OCCCN2CCOCC2)ccc2c3n(c(=NC(=O)c4cnc(N)nc4)nc12)CCN3 next.
Ans. 8.48

Qu. Try CC(Cn1ccc(-c2ccc(C#N)c(Cl)c2)n1)NC(=O)c1cc(C(C)O)[nH]n1 (stereo unspecified) + CC(Nc1ncnc2nc[nH]c12)c1cc2cccc(Cl)c2c(=O)n1-c1ccccc1 next.
Ans. 90.5

Qu. Try CNC(=O)c1ccc(N2C(=S)N(c3ccc(C#N)c(C(F)(F)F)c3)C(=O)C2(C)C)cc1F + Cc1nc(NC(=O)N2CCCC2C(N)=O)sc1-c1ccnc(C(C)(C)C(F)(F)F)c1 next.
Ans. 46.2

Qu. Try CCN1CCN(Cc2ccc(Nc3ncc(F)c(-c4cc(F)c5nc(C)n(C(C)C)c5c4)n3)nc2)CC1 + CC(Nc1ncnc2nc[nH]c12)c1cc2cccc(Cl)c2c(=O)n1-c1ccccc1 next.
Ans. 46.6

Taken from PubChem BioAssay AID1963976.
